- System: Mus musculus
- measurement.notes: In vivo plasma glucose lowering in db/db mice, given at 100 mg/kg in mouse, after 24 hr
measurement.name: Change of predose

compound	observed.result
Cn1c2ccccc2c2nc3ccccc3cc21	14.1%
C[n+]1c2ccccc2cc2[nH]c3ccccc3c21.[I-] [CRYPTOLEPTINE IODIDE]	-22.5%
C[n+]1c2ccccc2cc2[n-]c3ccccc3c21.Cl [CRYPTOLEPINE HYDROCHLORIDE]	-43.1%
C[n+]1c2ccccc2cc2[n-]c3ccccc3c21 [CRYPTOLEPINE]	-30%
